# tested-system: human mAChR M4 (Homo sapiens, UniProt P08173)
# Sequence (P08173 1-479): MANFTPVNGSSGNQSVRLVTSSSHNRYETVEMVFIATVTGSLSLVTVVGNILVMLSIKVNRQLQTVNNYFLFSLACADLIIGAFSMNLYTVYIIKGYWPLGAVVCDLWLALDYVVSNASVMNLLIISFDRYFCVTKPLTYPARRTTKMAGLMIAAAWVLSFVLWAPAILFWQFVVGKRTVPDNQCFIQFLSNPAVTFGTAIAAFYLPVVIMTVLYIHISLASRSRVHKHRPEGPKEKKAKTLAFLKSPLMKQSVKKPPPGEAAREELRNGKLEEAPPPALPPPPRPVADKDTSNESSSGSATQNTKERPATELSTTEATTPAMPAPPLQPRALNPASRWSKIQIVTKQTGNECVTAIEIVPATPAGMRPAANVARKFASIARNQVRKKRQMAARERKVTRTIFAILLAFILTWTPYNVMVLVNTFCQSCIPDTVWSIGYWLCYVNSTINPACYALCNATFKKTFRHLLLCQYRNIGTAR
# protocol: mAChR M4 cell-based functional assay (calcium flux), human M4
# condition-notes: Table 10; % ACh maximum at 30 μM
Counter-ions that a name gives are not always drawn.
# note: boundary value 60% maps to NO; Emax below it maps to YES

input: A record lists COc1c(F)cc(CNc2ncnc3c2sc2nnc(C)c(C)c23)cc1F . Is its Emax below 60%?
output: NO

input: Param item: Cc1nnc2sc3c(N4CCC(C(=O)Nc5ccc(C(F)(F)F)cc5)C4)ncnc3c2c1C (stereo not drawn)
output: YES

input: Param item: Cc1nnc2sc3c(NCC45CC(C(C)(C)O)(C4)C5)ncnc3c2c1C
output: NO

input: Param item: Cc1nnc2sc3c(NC4CC5(C4)CN(C(=O)C4CCOCC4)C5)ncnc3c2c1C
output: YES

input: Param item: Cc1nc2sc3c(NCc4ccc(C(C)(C)O)c(F)c4)ncnc3c2c(C)c1Cl
output: YES

input: Param item: Cc1nc2sc3c(N4CC5(COC5)C4)ncnc3c2c(C)c1Cl [Compound 260, hydrochloride]
output: NO

input: Param item: Cc1c(Cl)cnc2sc3c(NCc4cnc5c(c4)CCC5)ncnc3c12
output: YES

input: Param item: Cc1nc2sc3c(NCc4ccc(CN5CCOCC5)cc4)ncnc3c2c(C)c1Cl [Compound 269, dihydrochloride]
output: NO

input: Param item: Cc1nnc2sc3c(NCc4ccc(C(=O)NC5CC(F)C5)cc4)ncnc3c2c1C (stereo not drawn)
output: NO

input: Param item: Cc1c(Cl)cnc2sc3c(NC4CC4(C)C)ncnc3c12 (stereo not drawn)
output: YES

input: Param item: Cc1nnc2sc3c(NC4CN(c5cnc(C6CC6)cn5)C4)ncnc3c2c1C
output: NO

input: Param item: Cc1nnc2sc3c(N4CC(C)(O)C4)ncnc3c2c1C
output: NO

====

# protocol: in vivo
# condition-notes: dog, plasma
readout-name: clearance (mL/min/kg)
Please state the figure in mL/min/kg; there is no need to write the unit.

input: Need clearance, item Cc1nnc2sc3c(NCc4ccc(C(C)(C)O)cc4)ncnc3c2c1C
output: 4.7

====

# tested-system: human mAChR M4 (Homo sapiens)
# protocol: mAChR M4 cell-based functional assay (calcium flux), human M4
# condition-notes: Human M4 EC50 (nM), Table 10; calcium flux, PAM activity with EC20 acetylcholine
Counter-ions that a name gives are not always drawn.
readout-name: EC50 (nM)
Please state the figure in nM; there is no need to write the unit.

input: Need EC50, item Cc1c(Cl)cnc2sc3c(NCc4ccc(CN5CCOCC5)cc4)ncnc3c12 [Compound 232]
output: 9780

input: Param item: COCC1CN(c2ncnc3c2sc2ncc(Cl)c(C)c23)C1 [Compound 218]
output: 1020

input: Param item: Cc1nnc2sc3c(NCc4ccc(F)c(C(C)(C)O)c4)ncnc3c2c1C [Compound 175]
output: 722

input: Param item: Cc1nc2sc3c(N4CC(F)(F)C4)ncnc3c2c(C)c1Cl [Compound 261, hydrochloride]
output: 3920

input: Param item: Cc1nnc2sc3c(NC4CC5(C4)CN(c4ncc(Cl)cc4Cl)C5)ncnc3c2c1C [Compound 162]
output: 5630

input: Param item: Cc1nnc2sc3c(NCc4ccc(C(=O)N5CCOCC5)cc4)ncnc3c2c1C [Compound 123]
output: 548

input: Param item: Cc1c(Cl)nnc2sc3c(NC4CCC4)ncnc3c12 [Compound 210]
output: 44.6

input: Param item: Cc1nnc2sc3c(N4CC(Nc5ncccc5C#N)C4)ncnc3c2c1C [Compound 141, trifluoroacetate]
output: 590

input: Param item: Cc1nnc2sc3c(NCc4ccc(C5(O)CCC5)cc4)ncnc3c2c1C [Compound 114]
output: 127

input: Param item: Cc1nnc2sc3c(NC4CN(c5ncc(OC(C)C)cn5)C4)ncnc3c2c1C [Compound 89]
output: 75.2

input: Param item: Cc1nnc2sc3c(NCc4ccc(-c5cccs5)cc4)ncnc3c2c1C [Compound 190]
output: 3210

input: Param item: Cc1nnc2sc3c(N4CC[C@@H](N)C4)ncnc3c2c1C [Compound 99, dihydrochloride]
output: 1040

input: Param item: Cc1nnc2sc3c(NCc4ccc(C(=O)N5CCCCC5)cc4)ncnc3c2c1C [Compound 125]
output: 574

input: Param item: Cc1nnc2sc3c(N4CC(N)C4)ncnc3c2c1C [Compound 95]
output: 395

input: Param item: Cc1nnc2sc3c(N4CC(O)(C5CC5)C4)ncnc3c2c1C [Compound 103]
output: 122

input: Param item: Cc1c(Cl)cnc2sc3c(N4CCC(F)(F)C4)ncnc3c12 [Compound 216]
output: 685

input: Param item: COc1ccc(CNc2ncnc3c2sc2nnc(C)c(C)c23)cc1 [Compound 135]
output: 139

input: Param item: COc1ccc(C2CC2Nc2ncnc3c2sc2ncc(Cl)c(C)c23)cc1 (centres unmarked) [Compound 236, dihydrochloride]
output: 5660

input: Param item: Cc1nnc2sc3c(NCc4ccc(N5CCN(C)CC5)cc4)ncnc3c2c1C [Compound 111, hydrochloride]
output: 126

input: Param item: Cc1nc2sc3c(NC4CN(c5ncc(F)cn5)C4)ncnc3c2c(C)c1Cl [Compound 263, hydrochloride]
output: 9520

input: Param item: Cc1cc(C)c2c(n1)sc1c(NC3CN(c4ccnc(C5(O)CCC5)c4)C3)ncnc12 [Compound 208]
output: 462

input: Param item: Cc1nc2sc3c(N4CC(c5ccncc5)C4)ncnc3c2c(C)c1Cl [Compound 262, dihydrochloride]
output: 1520

input: Param item: Cc1nnc2sc3c(N4CCC(C(C)(C)O)C4)ncnc3c2c1C (centres unmarked) [Compound 171]
output: 172

input: Param item: Cc1nnc2sc3c(NCc4ccc(C(=O)NC5CCC(C)(C)CC5)cc4)ncnc3c2c1C [Compound 160]
output: 980

input: Param item: Cc1ncc(CNc2ncnc3c2sc2ncc(Cl)c(C)c23)cn1 [Compound 238, dihydrochloride]
output: 382

input: Param item: Cc1nnc2sc3c(NCc4ccc(N5CCNCC5)cc4)ncnc3c2c1C [Compound 118]
output: 69

input: Param item: Cc1c(Cl)cnc2sc3c(NC4CN(c5cc(Cl)ncc5Cl)C4)ncnc3c12 [Compound 231]
output: 3710

input: Param item: Cc1nnc2sc3c(NCc4ccc(Oc5ccccn5)cc4)ncnc3c2c1C [Compound 110, hydrochloride]
output: 971

input: Param item: Cc1c(Cl)cnc2sc3c(N4CCCC4)ncnc3c12 [Compound 215]
output: 5980

input: Param item: COc1ccc(CNc2ncnc3c2oc2nnc(C)c(C)c23)cc1 [Compound 309]
output: 403

input: Param item: Cc1nnc2sc3c(NCc4ccc(C(=O)N5CCC5)cc4)ncnc3c2c1C [Compound 131]
output: 276

input: Param item: Cc1nnc2sc3c(NCc4ccc(C(=O)NC5CC6(COC6)C5)cc4)ncnc3c2c1C [Compound 154]
output: 109

input: Param item: Cc1cc(C)c2c(n1)oc1c(N3CC4(COC4)C3)ncnc12 [Compound 296]
output: 3370

input: Param item: COC(=O)C12CC(CNc3ncnc4c3sc3nnc(C)c(C)c34)(C1)C2 [Compound 140]
output: 1240

input: Param item: Cc1c(Cl)cnc2sc3c(NCc4cnc5c(c4)CCC5)ncnc3c12 [Compound 235]
output: 2890
